- TEST PROTOCOL: pharmacokinetics, plasma and brain by LC-MS
- Assay type: in vivo, mouse
- STATED CONDITIONS: mouse, brain, ip, 150 mg/kg

MOLECULE	half-life
CCn1c2ccccc2c2cc(C(O)c3cccc4ncccc34)ccc21 (stereo not shown) [ST-401]	~6 h

----------
- Test system: T98G cells
- TEST PROTOCOL: cell viability WST-1, T98G
- Assay type: cell-based
- STATED CONDITIONS: Homo sapiens, 72 h, read-out: IC50, overall cell viability
pIC50: −log10 of the molar value.

COMPOUND	pIC50
CCn1c2ccccc2c2cc(C(O)c3cccc4ncccc34)ccc21 (stereo not shown) [ST-401]	7.44

----------
- Test system: six human glioma cell lines (SF-268, SF-295, SF-539, SNB-19, SNB-75, U251)
- TEST PROTOCOL: NCI-60 cell line panel, six glioma lines
- Type: cell-based
- STATED CONDITIONS: read-out: IC50s (growth inhibition, TGI50 in Figure 2A)

COMPOUND	TESTED TARGET	IC50
CCn1c2ccccc2c2cc(C(O)c3cccc4ncccc34)ccc21 (stereo not shown) [ST-401]	six human glioma cell lines (SF-268, SF-295, SF-539, SNB-19, SNB-75, U251)	23 to 69 nM

Values were extracted from paper PMC7813200.
